Entry source: ChEMBL document CHEMBL3792346

System: Chlamydia trachomatis
PROTOCOL_DESCRIPTION: Antimicrobial activity against Chlamydia trachomatis serovar LGV-L2 infected in human HeLa cells assessed as concentration require to reduce relative inclusion forming units by 95% after 48 hrs
Type: functional
What Activity was measured for each of the following?
Please answer using a numeric value trailed by its unit.

Provide reported Activity for each item, in the same order as listed.
1. Cc1cccc(NC(=O)C2CSc3c(C4CC4)c(Cc4cccc5ccccc45)c(N)c(=O)n32)c1 (centres undefined)
2. O=C(Nc1ccc(F)cc1)C1CSc2c(C3CC3)c(Cc3cccc4ccccc34)cc(=O)n21 (centres undefined)
3. Cc1ccc(NC(=O)C2CSc3c(C4CC4)c(Cc4cccc(C)c4C)cc(=O)n32)cc1 (centres undefined)
4. O=C(Nc1ccccn1)C1CSc2c(C3CC3)c(Cc3cccc4ccccc34)cc(=O)n21 (centres undefined)
5. O=C(Nc1ccc(Cl)cc1)C1CSc2c(C3CC3)c(Cc3cccc4ccccc34)cc(=O)n21 (centres undefined)
6. O=C(Nc1ccccc1F)C1CSc2c(C3CC3)c(Cc3cccc4ccccc34)cc(=O)n21 (centres undefined)

1: 1 µM; 2: 2.5 µM; 3: 1 µM; 4: 10 µM; 5: 2.5 µM; 6: 2.5 µM

###

PROTOCOL_DESCRIPTION: Cytotoxicity against human HeLa cells assessed as cell viability at 10 uM after 48 hrs by resazurin assay relative to control
Type: cell-based
CONDITION_CONTEXT: read-out: Activity
RECORDED_ENDPOINT: viability at 48 h, 10 µM (%)
Numbers only, in %.

// below: answered compounds
COMPOUND: CN1CCN(C(=O)C2CSc3c(C4CC4)c(Cc4cccc5ccccc45)cc(=O)n32)CC1 (configuration not stated)
UNIT_OF_MEASUREMENT: %
viability at 48 h, 10 µM: 96
//
COMPOUND: O=C(Nc1ccccc1)C1CSc2c(C3CC3)c(Cc3ccc(Cl)cc3)cc(=O)n21 (configuration not stated)
UNIT_OF_MEASUREMENT: %
viability at 48 h, 10 µM: 94
//
COMPOUND: O=C(Nc1ccncc1)C1CSc2c(C3CC3)c(Cc3cccc4ccccc34)cc(=O)n21 (configuration not stated)
UNIT_OF_MEASUREMENT: %
viability at 48 h, 10 µM: 69
//
COMPOUND: O=C(Nc1ccccc1)C1CSc2c(C3CC3)c(Cc3cccc4ccccc34)cc(=O)n21 (racemic)
UNIT_OF_MEASUREMENT: %
viability at 48 h, 10 µM: 100
//
COMPOUND: Cc1ccc(NC(=O)C2CSc3c(C4CC4)c(Cc4cccc(C)c4C)c(N)c(=O)n32)cc1 (configuration not stated)
UNIT_OF_MEASUREMENT: %
viability at 48 h, 10 µM: 101
//
COMPOUND: Cc1cccc(Cc2cc(=O)n3c(c2C2CC2)SCC3C(=O)Nc2ccccc2)c1C (configuration not stated)
UNIT_OF_MEASUREMENT: %
viability at 48 h, 10 µM: 91

Batch lookup, viability at 48 h, 10 µM per entry.
1. Nc1c(Cc2cccc3ccccc23)c(C2CC2)c2n(c1=O)C(C(=O)Nc1ccncn1)CS2 (configuration not stated)
2. O=C(Nc1ccccc1)C1CSc2c(C3CC3)c(Cc3cccc4ncccc34)cc(=O)n21 (configuration not stated)
3. O=C(Nc1cccnc1)C1CSc2c(C3CC3)c(Cc3cccc4ccccc34)cc(=O)n21 (configuration not stated)
4. O=C(Nc1ccccc1)[C@H]1CSc2c(C3CC3)c(Cc3cccc4ccccc34)cc(=O)n21
5. Cc1ccc(NC(=O)C2CSc3c(C4CC4)c(Cc4cccc5ccccc45)c(N)c(=O)n32)cc1 (configuration not stated)
6. CNC(=O)C1CSc2c(C3CC3)c(Cc3cccc4ccccc34)cc(=O)n21 (configuration not stated)

1. 99
2. 91
3. 77
4. 100
5. 98
6. 93

Would you mind giving viability at 48 h, 10 µM for every compound in the list below?
1. O=C(Nc1ccccc1)C1CSc2c(C3CC3)c(Cc3ccccc3)cc(=O)n21 (configuration not stated)
2. Nc1c(Cc2cccc3ccccc23)c(C2CC2)c2n(c1=O)C(C(=O)Nc1ccccc1)CS2 (configuration not stated)
3. NC(=O)c1ccc(NC(=O)C2CSc3c(C4CC4)c(Cc4cccc5ccccc45)c(N)c(=O)n32)cc1 (configuration not stated)
4. O=C(NCc1ccccc1)C1CSc2c(C3CC3)c(Cc3cccc4ccccc34)cc(=O)n21 (configuration not stated)
5. Cc1cccc(NC(=O)C2CSc3c(C4CC4)c(Cc4cccc5ccccc45)cc(=O)n32)c1 (configuration not stated)
6. O=C(Nc1ccccc1)[C@@H]1CSc2c(C3CC3)c(Cc3cccc4ccccc34)cc(=O)n21

96
101
103
93
99
100

###

Answer each item with its documented viability at 48 h, 25 µM.
PROTOCOL_DESCRIPTION: Cytotoxicity against human HeLa cells assessed as cell viability at 25 uM after 48 hrs by resazurin assay relative to control
Format: cell-based
CONDITION_CONTEXT: read-out: Activity
Give bare numbers, in %.

Consider the worked cases shown below.
MOLECULE: Cc1cccc(NC(=O)C2CSc3c(C4CC4)c(Cc4cccc5ccccc45)cc(=O)n32)c1 (stereo not drawn)
RECORDED_ENDPOINT: viability at 48 h, 25 µM
UNIT_OF_MEASUREMENT: %
ENDPOINT_RESULT: 100

MOLECULE: Cc1ccc(NC(=O)C2CSc3c(C4CC4)c(Cc4cccc(C)c4C)c(N)c(=O)n32)cc1 (stereo not drawn)
RECORDED_ENDPOINT: viability at 48 h, 25 µM
UNIT_OF_MEASUREMENT: %
ENDPOINT_RESULT: 102

MOLECULE: Nc1c(Cc2cccc3ccccc23)c(C2CC2)c2n(c1=O)C(C(=O)Nc1ccccc1)CS2 (stereo not drawn)
RECORDED_ENDPOINT: viability at 48 h, 25 µM
UNIT_OF_MEASUREMENT: %
ENDPOINT_RESULT: 98

MOLECULE: Nc1c(Cc2cccc3ccccc23)c(C2CC2)c2n(c1=O)C(C(=O)Nc1ccncn1)CS2 (stereo not drawn)
RECORDED_ENDPOINT: viability at 48 h, 25 µM
UNIT_OF_MEASUREMENT: %
ENDPOINT_RESULT: 88

MOLECULE: Cc1cccc(NC(=O)C2CSc3c(C4CC4)c(Cc4cccc5ccccc45)c(N)c(=O)n32)c1 (stereo not drawn)
RECORDED_ENDPOINT: viability at 48 h, 25 µM
UNIT_OF_MEASUREMENT: %
ENDPOINT_RESULT: 97

MOLECULE: Cc1ccc(NC(=O)C2CSc3c(C4CC4)c(Cc4cccc5ccccc45)c(N)c(=O)n32)cc1 (stereo not drawn)
RECORDED_ENDPOINT: viability at 48 h, 25 µM
UNIT_OF_MEASUREMENT: %
ENDPOINT_RESULT: 98

MOLECULE: Cc1ccc(NC(=O)C2CSc3c(C4CC4)c(Cc4ccc(Cl)cc4)c(N)c(=O)n32)cc1 (stereo not drawn)
RECORDED_ENDPOINT: viability at 48 h, 25 µM
UNIT_OF_MEASUREMENT: %
ENDPOINT_RESULT: 102

State the recorded viability at 48 h, 25 µM for this entry: O=C(Nc1ccccc1)c1csc2c(C3CC3)c(Cc3cccc4ccccc34)cc(=O)n12
73

###

Test system: Chlamydia trachomatis
PROTOCOL_DESCRIPTION: Antimicrobial activity against Chlamydia trachomatis serovar LGV-L2 infected in human HeLa cells assessed as decrease in relative inclusion forming units measured 44 to 48 hrs post infection by DAPI staining-based assay
Format: functional, organism-based
Exercise: for every item that follows, state its recorded EC50.
Numbers only, in nM.

A selection of reference data follows.
COMPOUND: Cc1ccc(NC(=O)C2CSc3c(C4CC4)c(Cc4ccc(Cl)cc4)c(N)c(=O)n32)cc1 (configuration not stated)
ENDPOINT_RESULT: 266
--
COMPOUND: O=C(Nc1ccccc1)c1csc2c(C3CC3)c(Cc3cccc4ccccc34)cc(=O)n12
ENDPOINT_RESULT: 254
--
COMPOUND: Cc1cccc(NC(=O)C2CSc3c(C4CC4)c(Cc4cccc5ccccc45)c(N)c(=O)n32)c1 (configuration not stated)
ENDPOINT_RESULT: 147
--
COMPOUND: Cc1ccc(NC(=O)C2CSc3c(C4CC4)c(Cc4cccc5ccccc45)c(N)c(=O)n32)cc1 (configuration not stated)
ENDPOINT_RESULT: 140
--
COMPOUND: Nc1c(Cc2cccc3ccccc23)c(C2CC2)c2n(c1=O)C(C(=O)Nc1ccccc1)CS2 (configuration not stated)
ENDPOINT_RESULT: 59

Return reported EC50 values for all items listed beneath this line.
1. Cc1ccc(NC(=O)C2CSc3c(C4CC4)c(Cc4cccc(C)c4C)c(N)c(=O)n32)cc1 (configuration not stated)
2. Cc1cccc(NC(=O)C2CSc3c(C4CC4)c(Cc4cccc5ccccc45)cc(=O)n32)c1 (configuration not stated)

281
102
